- Test system: Pichia kudriavzevii
- Assay: Antifungal activity against Candida krusei MTCC 3020
- Format: functional
Reported Property: MIC

{"Compound": "Clc1ccc(COC(Cn2ccnc2)c2ccc(Cl)cc2Cl)c(Cl)c1 (stereo unspecified)", "MIC": "18.7 µM"}
{"Compound": "COc1ccc(-n2cc(COc3ccc(/C=N/Nc4nc(-c5cc6cc(Br)cc(OC)c6oc5=O)cs4)cc3)nn2)cc1", "MIC": "> 190 µM"}
{"Compound": "COc1ccc(-n2cc(COc3ccc(/C=N/Nc4nc(-c5cc6cccc(OC)c6oc5=O)cs4)cc3)nn2)cc1", "MIC": "> 215 µM"}

Pichia kudriavzevii assay, compound COc1ccc(-n2cc(COc3ccc(/C=N/Nc4nc(-c5cc6c(ccc7ccccc76)oc5=O)cs4)cc3)nn2)cc1 , recorded MIC = > 208 µM

Noted MIC for COc1ccc(-n2cc(COc3ccc(/C=N/Nc4nc(-c5cc6cc([N+](=O)[O-])cc([N+](=O)[O-])c6oc5=O)cs4)cc3)nn2)cc1 , tested on Pichia kudriavzevii: > 195 µM

Summary: COc1ccc(-n2cc(COc3ccc(/C=N/Nc4nc(-c5cc6ccccc6oc5=O)cs4)cc3)nn2)cc1 , Pichia kudriavzevii, MIC = > 227 µM

---

- System: Staphylococcus aureus
- Assay: Inhibition of biofilm formation in Staphylococcus aureus […] incubated for 24 hrs by crystal violet staining based microtiter plate method
- Type: functional, organism-based
- Test Parameters: Staphylococcus aureus, MTCC 92, 24 h; read-out: IC50
# IC50 per record follows
Number only, in µM; omit the unit.

Study these solved cases before continuing.
{"Smiles Entry": "COc1ccc(-n2cc(COc3ccc(/C=N/Nc4nc(-c5cc6c(ccc7ccccc76)oc5=O)cs4)cc3)nn2)cc1", "Recorded Result": 30.1}
{"Smiles Entry": "COc1ccc(-n2cc(COc3ccc(/C=N/Nc4nc(-c5cc6cccc(Br)c6oc5=O)cs4)cc3)nn2)cc1", "Recorded Result": 32.6}
{"Smiles Entry": "COc1ccc(-n2cc(COc3ccc(/C=N/Nc4nc(-c5cc6cccc(OC)c6oc5=O)cs4)cc3)nn2)cc1", "Recorded Result": 13.5}

Consider now this further molecule.
get_value(item= COc1ccc(-n2cc(COc3ccc(/C=N/Nc4nc(-c5cc6cc(Br)cc(OC)c6oc5=O)cs4)cc3)nn2)cc1 , readout=IC50) returns 12

---

- Test system: Candida albicans
- Assay: Antifungal activity against Candida albicans MTCC 854
- Type: functional
Reported Property: MIC (µM)

{"Molecule": "COc1ccc(-n2cc(COc3ccc(/C=N/Nc4nc(-c5cc6c(ccc7ccccc76)oc5=O)cs4)cc3)nn2)cc1", "Reported Property": "MIC", "Recorded Result": 6.5}

(I) COc1ccc(-n2cc(COc3ccc(/C=N/Nc4nc(-c5cc6ccccc6oc5=O)cs4)cc3)nn2)cc1
(II) Clc1ccc(COC(Cn2ccnc2)c2ccc(Cl)cc2Cl)c(Cl)c1 (stereo unspecified)
Which record shows the lower MIC: the first, I , or the second, II ? Your choice should be expressed through its label. I
(I: 7.1 µM, II: 18.7 µM)

---

Reported MIC values for a set of molecules
- Tested on: Candida albicans
- Assay: Antifungal activity against Candida albicans MTCC 227
- Assay type: functional

Worked set:
{"Molecule": "COc1ccc(-n2cc(COc3ccc(/C=N/Nc4nc(-c5cc6c(ccc7ccccc76)oc5=O)cs4)cc3)nn2)cc1", "MIC": "> 208 µM"}
{"Molecule": "Clc1ccc(COC(Cn2ccnc2)c2ccc(Cl)cc2Cl)c(Cl)c1 (stereo unspecified)", "MIC": "18.7 µM"}
{"Molecule": "COc1ccc(-n2cc(COc3ccc(/C=N/Nc4nc(-c5cc6cccc(OC)c6oc5=O)cs4)cc3)nn2)cc1", "MIC": "> 215 µM"}
{"Molecule": "COc1ccc(-n2cc(COc3ccc(/C=N/Nc4nc(-c5cc6cc(Br)cc(OC)c6oc5=O)cs4)cc3)nn2)cc1", "MIC": "> 190 µM"}
{"Molecule": "COc1ccc(-n2cc(COc3ccc(/C=N/Nc4nc(-c5cc6cc([N+](=O)[O-])cc([N+](=O)[O-])c6oc5=O)cs4)cc3)nn2)cc1", "MIC": "> 195 µM"}

Now consider a different molecule.
MIC reading for COc1ccc(-n2cc(COc3ccc(/C=N/Nc4nc(-c5cc6ccccc6oc5=O)cs4)cc3)nn2)cc1 : > 227 µM

---

# reported CC50; entries follow
- Assay: Cytotoxicity against human THP-1 cells
- Format: cell-based
Write the number in µM without appending the unit.

Given item COc1ccc(-n2cc(COc3ccc(/C=N/Nc4nc(-c5ccc([N+](=O)[O-])cc5)cs4)cc3)nn2)cc1 , the value recorded as its CC50 is 37.9

Entry COc1ccc(-c2csc(N/N=C/c3ccc(OCc4cn(-c5ccc(OC)cc5)nn4)cc3)n2)cc1 ; CC50 = 39

Noted for COc1ccc(-n2cc(COc3ccc(/C=N/Nc4nc(-c5ccc(Cl)cc5)cs4)cc3)nn2)cc1 : its CC50 reads 38.7

The value of CC50 measured for the molecule COc1ccc(-n2cc(COc3ccc(/C=N/Nc4nc(-c5ccc(C)cc5)cs4)cc3)nn2)cc1 turned out to be 40.3

Lab book: CC50 of COc1ccc(-n2cc(COc3ccc(/C=N/Nc4nc(-c5cc6cc(Br)cc(OC)c6oc5=O)cs4)cc3)nn2)cc1 noted as 30.3

CC50 measured on COc1ccc(-n2cc(COc3ccc(/C=N/Nc4nc(-c5cc6c(ccc7ccccc76)oc5=O)cs4)cc3)nn2)cc1 = 33.3

CC50 for COc1ccc(-n2cc(COc3ccc(/C=N/Nc4nc(-c5cc6cccc(OC)c6oc5=O)cs4)cc3)nn2)cc1 is 34.5

Note to self: CC50 recorded for COc1ccc(-n2cc(COc3ccc(/C=N/Nc4nc(-c5cc6ccccc6oc5=O)cs4)cc3)nn2)cc1 was 36.3

Value of CC50 reported for the molecule COc1ccc(-n2cc(COc3ccc(/C=N/Nc4nc(-c5ccc(-c6ccccc6)cc5)cs4)cc3)nn2)cc1 is 35.8

Measured CC50 of COc1ccc(-n2cc(COc3ccc(/C=N/Nc4nc(-c5ccc(Br)cc5)cs4)cc3)nn2)cc1 : 35.6

---

- System: Pichia sporocuriosa
- Assay: Antifungal activity against Issatchenkia hanoiensis MTCC 4755
- Type: functional
Reported Property: MIC (µM)

// worked examples, MIC included
{"Compound": "COc1ccc(-n2cc(COc3ccc(/C=N/Nc4nc(-c5cc6c(ccc7ccccc76)oc5=O)cs4)cc3)nn2)cc1", "Reported Property": "MIC", "Unit": "µM", "Recorded Result": 6.5}
{"Compound": "COc1ccc(-n2cc(COc3ccc(/C=N/Nc4nc(-c5cc6ccccc6oc5=O)cs4)cc3)nn2)cc1", "Reported Property": "MIC", "Unit": "µM", "Recorded Result": 7.1}

(1) COc1ccc(-n2cc(COc3ccc(/C=N/Nc4nc(-c5cc6cccc(OC)c6oc5=O)cs4)cc3)nn2)cc1
(2) Clc1ccc(COC(Cn2ccnc2)c2ccc(Cl)cc2Cl)c(Cl)c1 (stereo unspecified)
I need your help: which of the pair 1 , 2 has higher MIC? API: response body contains the label of the selected item. 2
(2: 18.7 µM, 1: 6.7 µM)

---

- System: Staphylococcus aureus
- Assay: Antibacterial activity against Staphylococcus aureus MLS16 MTCC 2940 assessed as inhibition of bacterial growth by microtiter broth dilution method
- Type: functional
Reported MIC values for the following molecules.

{"Smiles Entry": "COc1ccc(-n2cc(COc3ccc(/C=N/Nc4nc(-c5cc6cc(Br)cc(OC)c6oc5=O)cs4)cc3)nn2)cc1", "MIC": "5.9 µM"}

Entry COc1ccc(-n2cc(COc3ccc(/C=N/Nc4nc(-c5ccc(F)cc5)cs4)cc3)nn2)cc1 : MIC on Staphylococcus aureus = > 223 µM

Reading of MIC for COc1ccc(-n2cc(COc3ccc(/C=N/Nc4nc(-c5cc6cc(Br)cc(Br)c6oc5=O)cs4)cc3)nn2)cc1 with Staphylococcus aureus: > 176 µM

---

- Tested on: Escherichia coli
- Assay: Antibacterial activity against Escherichia coli MTCC 739 assessed as inhibition of bacterial growth by microtiter broth dilution method
- Format: functional
Reported Property: MIC

{"Smiles Entry": "COc1ccc(-c2csc(N/N=C/c3ccc(OCc4cn(-c5ccc(OC)cc5)nn4)cc3)n2)cc1", "Recorded Result": "> 244 µM"}
{"Smiles Entry": "COc1ccc(-n2cc(COc3ccc(/C=N/Nc4nc(-c5ccc([N+](=O)[O-])cc5)cs4)cc3)nn2)cc1", "Recorded Result": "> 237 µM"}
{"Smiles Entry": "COc1ccc(-n2cc(COc3ccc(/C=N/Nc4nc(-c5cc6cc(Br)cc(Br)c6oc5=O)cs4)cc3)nn2)cc1", "Recorded Result": "5.5 µM"}
{"Smiles Entry": "COc1ccc(-n2cc(COc3ccc(/C=N/Nc4nc(-c5cc6cc(Br)cc(OC)c6oc5=O)cs4)cc3)nn2)cc1", "Recorded Result": "5.9 µM"}
{"Smiles Entry": "COc1ccc(-n2cc(COc3ccc(/C=N/Nc4nc(-c5cc6ccccc6oc5=O)cs4)cc3)nn2)cc1", "Recorded Result": "> 227 µM"}

Here is the next item to consider.
Entry COc1ccc(-n2cc(COc3ccc(/C=N/Nc4nc(-c5cc6cc([N+](=O)[O-])cc([N+](=O)[O-])c6oc5=O)cs4)cc3)nn2)cc1 — recorded MIC = > 195 µM

Attribution: ChEMBL document CHEMBL4673372
